experiment: NCI Yeast Anticancer Drug Screen. Data for the rad50 strain (AID 155);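 note: 0% = growth of vehicle-only cultures of the same strain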; details: S. cerevisiae rad50 strain growth inhibition; at 50.0 µM; hits give high values
This is part of a sample that, as a whole, favours compounds with a hit. Of some 79,000 tested, about 15% had one in any assay.
PROPERTY_MEASURED: growth inhibition (%)
Unit % implied. Number only.

Note growth inhibition for the compound shown: O=S(=O)(OCC1CC2C=CC1C2)c1ccc(Br)cc1 (stereo unspecified)
-15.6

Note growth inhibition for the compound shown: NC(=O)NCCCC1NC(=S)N(c2ccccc2)C1=O (stereo unspecified)
-3.35

Note growth inhibition for the compound shown: CC1=CC(C)(C)NC(=S)N1c1cccc2c(S(=O)(=O)O)cccc12
5.05

Note growth inhibition for the compound shown: CCCCCCC(=O)/C=C/c1ccccc1OCOC
-3.35

Note growth inhibition for the compound shown: NC(=O)Nc1ccc(Cc2ccc(NC(N)=O)cc2)cc1
-15.4

Note growth inhibition for the compound shown: CC1(C)C2CCC(=O)C1CC2 (stereo unspecified)
6.75

Note growth inhibition for the compound shown: O=C(Nc1nc2ncn(CCNCc3ccccc3)c2c(=O)[nH]1)c1ccccc1
-7.75

Note growth inhibition for the compound shown: O=Cc1cc(Cl)cc(Cl)c1
5

Note growth inhibition for the compound shown: O=C(O)c1nc(-c2ccccc2)[nH]c1C(=O)O
20.5

Note growth inhibition for the compound shown: O=C1NC(=S)S/C1=C/c1cn(-c2ccccc2)nn1
17.4

Note growth inhibition for the compound shown: Cc1ccc(/C=N/NC2=NCCN2)s1
-0.4

Note growth inhibition for the compound shown: CC12CCCC=C1N(C=O)c1ccccc12 (stereo unspecified)
-6.1

Note growth inhibition for the compound shown: C1=COC(C=Nc2ccccc2)CC1 (stereo unspecified)
-12.3

Note growth inhibition for the compound shown: CCCCCCCCCCCCOC1C(COCCN2CCCCC2)OC2OC(C)(C)OC21 (stereo unspecified)
92.6

Note growth inhibition for the compound shown: CCN(CC)CCOc1ccc(/C(C#N)=C/c2ccc(OCCN3CCCCC3)cc2)cc1
35

Note growth inhibition for the compound shown: O[C@@H]1CC2(Cl)CC1(Cl)C(Cl)=C2Cl (stereo partly specified)
19.4

Note growth inhibition for the compound shown: Oc1cc2ccc3c(c2cc1O)CCc1cn[nH]c1-3
7.1

Note growth inhibition for the compound shown: O=S1(=O)c2ccccc2N(O)C2=NCCN21
-50.1

Note growth inhibition for the compound shown: COc1cc(C=O)ccc1OC(=O)Nc1ccc(F)c([N+](=O)[O-])c1
0.8

Note growth inhibition for the compound shown: CCS(=O)O
-21.2

Note growth inhibition for the compound shown: O=S(=O)(CS(=O)(=O)c1ccccc1Br)c1ccccc1Br
-7.65

Note growth inhibition for the compound shown: CC1c2c(ccc3c2CCC=C3)CCC1CC1=CCCc2ccc3ccccc3c21 (stereo unspecified)
6.7

Note growth inhibition for the compound shown: COc1cccc2c(Nc3ccc(S(=O)(=O)Nc4ncccn4)cc3)c3ccc([N+](=O)[O-])cc3nc12
59.8

Note growth inhibition for the compound shown: NNc1ccc(S(=O)(=O)O)cc1Cl
8.35

Note growth inhibition for the compound shown: CC(=O)Nc1cccc(OCCOc2ccccc2[N+](=O)[O-])c1
-0.6

Note growth inhibition for the compound shown: N#CC1CCCC(c2ccccc2)(C2CCCCC2)C1=O (stereo unspecified)
7.4

----------
assay: NCI Yeast Anticancer Drug Screen. Data for the sgs1 mgt1 strain (AID 161);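 note: 0% = growth of cultures given vehicle only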; details: S. cerevisiae sgs1 mgt1 strain, at 50.0 µM, hits give high values
The panel holds about 79,000 compounds, 15% with a hit somewhere; the sample as a whole holds those more often.
Provide the recorded growth inhibition for the entries that follow.
Unit % implied. Number only.

Note growth inhibition for the compound shown: c1ccc2c(c1)nc(NC1CCCC1)c1[nH]c(C3CCCC3)nc12
-56.9

Note growth inhibition for the compound shown: CC(C)(C)N=C(N)NC#N
-9.85

Note growth inhibition for the compound shown: CCc1ccc(N=Nc2c(F)c(F)c(N(C)C)c(F)c2F)cc1
6.85

Note growth inhibition for the compound shown: O=c1[nH][nH]c(=O)n2c1cc1oc(-c3ccccc3)cc12
17.8

Note growth inhibition for the compound shown: CCc1c2cc(OC)c(OC)cc2cc2c3cc(OC)c(OC)cc3cc[n+]12 (tested in a mixture with another compound)
-20.1

Source listed as PubChem BioAssay (NCI).
